Reference for the values: patent US10099993B2

Below, each of the compounds is paired with its reported pEC50 value.
molecular target: mGlu3 (Rattus norvegicus (Rat)); test: mGlu3 GIRK thallium flux assay; settings: read-out: mGlu3 PAM EC50; PAM mode; test compound, then EC20 glutamate […] later in the presence of thallium; mean ± SEM;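 note: kinetic fluorescence slope read shortly after thallium plus agonist addition, scaled between vehicle and maximal agonist control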
Sequence (P31422 23-879): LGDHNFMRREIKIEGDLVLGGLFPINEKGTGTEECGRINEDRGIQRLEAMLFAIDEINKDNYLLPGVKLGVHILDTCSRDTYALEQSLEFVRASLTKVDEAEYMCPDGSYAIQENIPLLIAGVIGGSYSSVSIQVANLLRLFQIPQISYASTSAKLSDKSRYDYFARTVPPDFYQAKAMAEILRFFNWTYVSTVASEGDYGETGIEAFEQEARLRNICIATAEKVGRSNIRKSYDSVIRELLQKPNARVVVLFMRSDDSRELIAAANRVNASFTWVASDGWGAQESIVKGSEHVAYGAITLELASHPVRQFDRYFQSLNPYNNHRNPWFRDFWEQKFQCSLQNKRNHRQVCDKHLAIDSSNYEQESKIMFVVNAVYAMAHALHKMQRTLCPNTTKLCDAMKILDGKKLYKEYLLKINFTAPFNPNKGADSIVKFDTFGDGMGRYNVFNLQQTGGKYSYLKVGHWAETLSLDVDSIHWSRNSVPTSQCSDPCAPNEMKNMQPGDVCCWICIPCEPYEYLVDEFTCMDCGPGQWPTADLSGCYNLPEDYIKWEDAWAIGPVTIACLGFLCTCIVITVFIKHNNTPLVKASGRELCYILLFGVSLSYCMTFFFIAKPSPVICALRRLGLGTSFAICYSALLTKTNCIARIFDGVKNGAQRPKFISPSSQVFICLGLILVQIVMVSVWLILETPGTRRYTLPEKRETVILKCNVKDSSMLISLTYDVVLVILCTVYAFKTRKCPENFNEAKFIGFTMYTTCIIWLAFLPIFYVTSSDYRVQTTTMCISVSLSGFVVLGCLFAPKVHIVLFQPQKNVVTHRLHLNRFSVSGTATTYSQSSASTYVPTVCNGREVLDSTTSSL
pEC50: −log10 of the molar value.
measured_attribute: pEC50

# compound, value_reported
measured = [
    ("Cc1c(OCc2cccc(-c3cnc(C(=O)O)cn3)c2)ccc(C(=O)CC(C)(C)C)c1O [Compound 181]", 5.37),
    ("COc1ccc(C(=O)O)cc1OCCCCOc1ccc(C(C)=O)c(O)c1C [Compound 53]", "< 4.52"),
    ("Cc1c(OCCCCSc2ccncc2)ccc(C(=O)CC(C)C)c1C [Compound 189]", "< 4.52"),
    ("Cc1c(OCc2cccc(COc3ccc(C#N)cc3)c2)ccc(C(=O)CC(C)C)c1C [compound 115]", "< 4.52"),
    ("Cc1c(OCc2cccc(-c3cccc(C(=O)O)c3)c2)ccc(C(=O)CC2CCCC2)c1O [compound 129]", 5.45),
    ("COC(=O)c1ccc(OCCCCOc2ccc(C(=O)CC(C)C)c(O)c2C)cc1 [Compound 16]", "< 4.52"),
    ("Cc1c(OCCCCOc2ccccc2C(=O)O)ccc(C(=O)CC2CCCC2)c1O [Compound 29]", "< 4.52"),
    ("COC(=O)c1ccc(OCCCCOc2ccc(C(=O)CC(C)C)c(C)c2C)cc1 [Compound 14]", "< 4.52"),
    ("COC(=O)CCc1cc(OCCCCOc2ccc(C(=O)CC(C)C)c(O)c2C)ccc1O [compound 85]", "< 4.52"),
    ("CCCC(=O)c1ccc(OCc2cccc(-c3cccc(C(=O)O)c3)c2)c(C)c1O [compound 130]", 5.77),
]
